Target: T1, PUF4 RNA-binding domain (Saccharomyces cerevisiae, UniProt P25339 537-888)
T1 sequence: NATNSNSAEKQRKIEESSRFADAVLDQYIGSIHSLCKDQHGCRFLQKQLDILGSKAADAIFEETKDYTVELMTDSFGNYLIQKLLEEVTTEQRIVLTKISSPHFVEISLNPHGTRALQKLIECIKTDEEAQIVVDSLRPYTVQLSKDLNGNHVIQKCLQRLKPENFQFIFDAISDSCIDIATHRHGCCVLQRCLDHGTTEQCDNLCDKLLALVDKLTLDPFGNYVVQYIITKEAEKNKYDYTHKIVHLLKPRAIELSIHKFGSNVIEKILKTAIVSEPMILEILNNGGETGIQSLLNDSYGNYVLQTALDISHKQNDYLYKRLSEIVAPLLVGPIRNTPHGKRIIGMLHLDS
Assay: Mg; RNA-MaP; 20 mM Na-HEPES pH 7.4, 30 mM KOAc, 0.75 mM MgCl2, 0.1% Tween-20, 5% glycerol, 0.1 mg/mL BSA, 2 mM DTT; 25 C; 0.0125-409.6 nM protein
Settings: tags: N-His6-TEV cleaved; C-SNAP kept, Cy3B-labelled; label: tethered on chip by stalled RNA polymerase
# 1 = Kd below 30 nM (exclusive); -1 = Kd at/above 30 nM

As a guide, the following entries are already answered.
Id_ii_S2_P3E.4_K3.3_C3.2_[T-1A]_H3.3_A3.1_F3.1_T3.2_[T9A]_[A10T] (ssRNA) RNA: UUUGAUUAAUAUGAUAUCGUUCUUUCUCAACACUAUAAUUUCUUUCUCGAUAUCAUAUUAAUCUUU ... -1
Ic_S2_P4E.1_K4.1_C4.1_H4.1_A4.1_[A6C]_F4.1_[T8A]_[A9T]_T4.1 (ssRNA) RNA: UUUGAUUAAUAUGAUAUCGUUCUUUCUUGUAUCUAUUUCUUUCUCGAUAUCAUAUUAAUCUUU ... 1
Ic_S2_P5E.1_K5.1_C5.1_H5.1_A5.1_[T5A]_[T6A]_[A7C]_F5.1_[T9G]_[A10G]_T5.1 (ssRNA) RNA: UUUGAUUAAUAUGAUAUCGUUCUUUCUUGUAAACUGGUUCUUUCUCGAUAUCAUAUUAAUCUUU ... 1
ACAAACCAACACUAUUAAUACAAAC (ssRNA) [Id_ii_S3_P4E.4_K4.3_C4.2_[T-1A]_H4.3_A4.1_F4.1_T4.2_[G10A]] ... -1
Id_ii_S2_P3E.2_K3.1_C3.2_[C-2T]_[T-1A]_H3.1_A3.1_F3.1_T3.2_[T9G]_[A10C] (ssRNA) RNA: UUUGAUUAAUAUGAUAUCGUUCUUUCUUAUGUAUAUAGCUUCUUUCUCGAUAUCAUAUUAAUCUUU ... 1

Exercise: Is Kd of ACAAACUAACACUAUAUUACAAAC (ssRNA) [Id_ii_S3_P3E.4_K3.3_C3.2_[C-2T]_[T-1A]_H3.3_A3.1_F3.1_T3.2_[A10T]] strictly below 30 nM?
Key: -1

Exercise: Dear reviewer, please state whether UCUCUUCCACACUUAUUACCUCUCUU (ssRNA) [Id_ii_S1_P5E.4_K5.3_C5.2_[T-1C]_H5.3_A5.1_F5.1_T5.2_[T11C]_[A12C]] has Kd strictly beneath 30 nM.
Key: -1

Exercise: is_below(Kd, 30 nM) for UCUCUUUGUACGCCCUCUCUU (ssRNA) [Ic_S1_P4E.1_K4.1_C4.1_H4.1_A4.1_[T5C]_[A6G]_[T7C]_F4.1_[T8C]_[A9C]_T4.1] ?
Key: -1

Exercise: Decide: Kd of Id_ii_S2_P3E.2_K3.1_C3.2_[C-2T]_[T-1G]_H3.1_A3.1_F3.1_T3.2 (ssRNA) RNA: UUUGAUUAAUAUGAUAUCGUUCUUUCUUGUGUAUAUAUAUUCUUUCUCGAUAUCAUAUUAAUCUUU strictly below 30 nM?
Key: 1

Exercise: Does the reported Kd of Ic_S2_P4E.1_K4.1_C4.1_H4.1_A4.1_[T5C]_[T7A]_F4.1_[T8C]_[A9G]_T4.1 (ssRNA) RNA: UUUGAUUAAUAUGAUAUCGUUCUUUCUUGUACAACGUUCUUUCUCGAUAUCAUAUUAAUCUUU stay below 30 nM?
Key: -1

Exercise: Find out if reported Kd for Id_ii_S4_P5E.3_K5.2_C5.2_[C-2A]_[T-1C]_H5.2_A5.1_F5.1_T5.2_[T11C]_[A12T] (ssRNA) RNA: UUUGACAACUGAUCGUUCUUUCUACUAUAUUAUUACUUUCUUUCUCGAUCAGUUGUCUUU is less than 30 nM
Key: -1

Exercise: Dear reviewer, please state whether UCUCUUUGUAUUAUCCUUAUCUCUU (ssRNA) [Ie_S1_P5E.1_K5.1_C5.1_H5.1_A5.1_F5.1_[+8CCT]_T5.1] has Kd strictly beneath 30 nM.
Key: 1

Exercise: Determine if Id_ii_S2_P4E.3_K4.2_C4.2_[C-2G]_[T-1C]_H4.2_A4.1_F4.1_T4.2_[G10C]_[T11C] (ssRNA) RNA: UUUGAUUAAUAUGAUAUCGUUCUUUCUGCUAUAUAUUACCUUCUUUCUCGAUAUCAUAUUAAUCUUU shows Kd strictly lower than 30 nM.
Key: 1
